# test_target: human FXR (NR1H4) (Homo sapiens)
# Construct: host or cells: CHO (Chinese hamster ovary) reporter cells
# experiment_notes: Human FXR (NR1H4) Assay (Gal4 promoter driven luciferase reporter, Indigo Bioscience kit IB00601); as to Efficacy (%): normalized to CDCA set as 100%
# Format: cell-based
# test_conditions: read-out: Efficacy (%)
Reported Emax values for a set of compounds
Kindly answer with a numeric value in %, unit omitted.

The following compounds have reported results that may help.
In [3]: df
Out[3]:
                            compound_string  experimental_endpoint  measured_number
0  CC(C)Oc1cc(C(=O)O)cc2sc(N3CCN4C(=O)[C@@H](OCc5c(-c6c(Cl)cccc6Cl)noc5C5CC5)C[C@@H]4C3)nc12                   Emax               21
1  CC(C)Oc1cc(C(=O)O)cc2sc(N3CCN4C[C@H](OCc5c(-c6c(Cl)cccc6Cl)noc5C5CC5)C[C@H]4C3)nc12                   Emax               72

Now turn to the next compound.
GET /values?readout=Emax&system=human FXR (NR1H4) (Homo sapiens)&item= `CC(C)Oc1cc(C(=O)O)cc2sc(N3CCN4C(=O)[C@H](OCc5c(-c6c(Cl)cccc6Cl)noc5C5CC5)C[C@H]4C3)nc12`
70

---

# test_target: human FXR (NR1H4) (Homo sapiens)
# experiment_notes: Human FXR (NR1H4) Assay (Gal4 promoter driven luciferase reporter, Indigo Bioscience kit IB00601)
# test_conditions: CHO reporter cells expressing human NR1H4; luciferase; 22 hours incubation; potency ranges
experimental_endpoint: EC50

Example cases with answers are listed next.
>>> print(df.to_string())
                            compound_string                       test_target  experimental_endpoint          result
0  CC(C)Oc1cc(C(=O)O)cc2sc([C@]3(F)CO[C@@H]4[C@H](OCc5c(-c6c(Cl)cccc6Cl)noc5C5CC5)CO[C@@H]43)nc12  human FXR (NR1H4) (Homo sapiens)                   EC50  200 to 1000 nM
1  O=C(O)c1ccc2nc(O[C@@H]3CO[C@H]4[C@@H]3OC[C@H]4OCc3c(-c4c(Cl)cccc4Cl)noc3C3CC3)sc2c1  human FXR (NR1H4) (Homo sapiens)                   EC50    30 to 200 nM
2  CC(C)Oc1cc(C(=O)NS(=O)(=O)N2CCCCC2)cc2sc(O[C@@H]3CO[C@H]4[C@@H]3OC[C@H]4OCc3c(-c4c(Cl)cccc4Cl)noc3C3CC3)nc12  human FXR (NR1H4) (Homo sapiens)                   EC50         < 30 nM

Look up EC50 for this molecule: `CC(C)Oc1cc(C(=O)NS(=O)(=O)N2CCCC2)cc2sc(O[C@@H]3CO[C@H]4[C@@H]3OC[C@H]4OCc3c(-c4c(Cl)cccc4Cl)noc3C3CC3)nc12`
< 30 nM

Suppose we examine the molecule `CC(C)Oc1cc(C(=O)O)cc2sc(N3C[C@H]4[C@@H](OCc5c(-c6c(Cl)cccc6Cl)noc5C5CC5)CO[C@H]4C3)nc12` ; what EC50 value has been reported?
200 to 1000 nM

---

# test_target: human FXR (NR1H4) (Homo sapiens, UniProt Q96RI1)
# Construct: host or cells: CHO (Chinese hamster ovary) reporter cells
# Sequence (Q96RI1 whole entry, the tested form may be a part): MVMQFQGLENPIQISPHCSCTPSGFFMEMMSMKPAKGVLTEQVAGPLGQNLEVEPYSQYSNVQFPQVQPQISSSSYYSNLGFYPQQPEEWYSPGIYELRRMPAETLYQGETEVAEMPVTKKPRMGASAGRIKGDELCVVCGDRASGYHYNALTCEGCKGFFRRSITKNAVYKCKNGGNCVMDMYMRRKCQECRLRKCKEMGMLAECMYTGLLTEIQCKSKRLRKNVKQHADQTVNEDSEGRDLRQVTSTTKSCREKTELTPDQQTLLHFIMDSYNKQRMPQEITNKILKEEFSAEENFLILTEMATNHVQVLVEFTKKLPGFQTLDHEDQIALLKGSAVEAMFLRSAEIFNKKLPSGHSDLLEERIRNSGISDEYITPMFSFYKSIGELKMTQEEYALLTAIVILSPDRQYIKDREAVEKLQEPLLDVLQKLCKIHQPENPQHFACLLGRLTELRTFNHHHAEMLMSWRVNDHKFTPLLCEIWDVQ
# experiment_notes: Human FXR (NR1H4) Assay (Gal4 promoter driven luciferase reporter, Indigo Bioscience kit IB00601); as to Efficacy (%): normalized to CDCA set as 100%
# Assay type: cell-based
# test_conditions: read-out: Efficacy (%)
experimental_endpoint: Emax
Form entry: enter the amount, then its unit.

                            compound_string  experimental_endpoint  result
0  CC(C)Oc1cc(C(=O)NS(=O)(=O)C2CC2)cc2sc(O[C@@H]3CO[C@H]4[C@@H]3OC[C@@H]4OCc3c(-c4c(Cl)cccc4Cl)noc3C3CC3)nc12                   Emax   33.5%

Tell me reported Emax for `CC(C)Oc1cc(C(=O)NS(=O)(=O)C2(C)CC2)cc2sc(O[C@@H]3CO[C@H]4[C@@H]3OC[C@H]4OCc3c(-c4ccccc4OC(F)(F)F)noc3C3CC3)nc12` , tested with human FXR (NR1H4) (Homo sapiens, UniProt Q96RI1).
78%

Form field - read-out: Emax; system: human FXR (NR1H4) (Homo sapiens, UniProt Q96RI1); submitted item: `CC(C)Oc1cc(C(=O)NS(=O)(=O)C2CC2)cc2sc(O[C@@H]3CO[C@H]4[C@@H]3OC[C@H]4OCc3c(-c4c(Cl)cccc4Cl)noc3C3CC3)nc12`
57%

Reported Emax for human FXR (NR1H4) (Homo sapiens, UniProt Q96RI1), given `O=C(NS(=O)(=O)C1CC1)c1ccc2nc(O[C@@H]3CO[C@H]4[C@@H]3OC[C@H]4OCc3c(-c4c(Cl)cccc4Cl)noc3C3CC3)sc2c1` ?
5.5%

Please tell me: Emax of `CC(C)Oc1cc(C(=O)NS(=O)(=O)C2(C)CC2)cc2sc(O[C@@H]3CO[C@H]4[C@@H]3OC[C@H]4OCc3c(-c4c(Cl)cccc4Cl)noc3C3CC3)nc12` , system human FXR (NR1H4) (Homo sapiens, UniProt Q96RI1)?
70%

# credit: patent US10689391B2
